meta.source: the MegaScale stability set (Tsuboyama et al. 2023)

B1: EEHEE_rd3_1049 (parent)
chain: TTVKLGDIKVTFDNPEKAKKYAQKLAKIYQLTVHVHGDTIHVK

# Variants of: B1
# assay-info: folding stability dG (cDNA display proteolysis); higher = more stable
# assay-context: PBS, room temperature
assay-readout: folding stability dG (kcal/mol)
Give bare numbers, in kcal/mol.

Some solved entries appear below for comparison.
>>> value_reported("Y21P")
-0.648
>>> value_reported("F12W")
0.742
>>> value_reported("D38S")
2.16
>>> value_reported("K17I")
2
>>> value_reported("K17Y")
1.9

State the recorded folding stability dG for every item in the following list.
1. T32L
2. K20S

Result:
1. 1.6
2. 1.71

List folding stability dG for every entry below, keeping the order given.
1. G6S
2. T11Q

Result:
1: 1.05; 2: 1.88

Quick one: give me folding stability dG for each item below, same order please.
1. D7S
2. I28E
3. L5Y
4. Y21D
5. Y29N

Result:
1. 2.73
2. 1.47
3. 2.12
4. -0.407
5. 0.582

Please supply folding stability dG for each of the following items, keeping them in order.
1. V33S
2. F12S
3. G6H
4. P15H
5. H34V

Result:
0.464
-0.062
1.75
2.04
2.59
